Reference for the values: patent US20220033501A1

Biological target: T1, human TIM-3 protein on human PBMC (human, UniProt Q8TDQ0 22-301)
T1 sequence: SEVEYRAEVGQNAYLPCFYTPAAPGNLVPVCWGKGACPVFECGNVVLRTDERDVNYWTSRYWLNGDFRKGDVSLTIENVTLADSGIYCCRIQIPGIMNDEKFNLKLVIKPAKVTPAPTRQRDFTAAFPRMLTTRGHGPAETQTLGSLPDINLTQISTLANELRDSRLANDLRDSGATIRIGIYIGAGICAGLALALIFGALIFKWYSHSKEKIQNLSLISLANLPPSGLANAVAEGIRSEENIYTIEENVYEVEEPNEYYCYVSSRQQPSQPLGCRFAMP
Test: cell-based or functional assay
Measured metric: IFN-γ production, lymphocyte activation assay (donor Y), antibody 10 µg/ml, N = 2 (pg/mL)
Give bare numbers, in pg/mL.

Some entries whose results are on file:
[[record]]
binder = "fully human TIM-3 antibody 18D2H2 (antibody, human IgG4, V domains shown, also called antibody number 2) VH: EVQLVESGGDLVQPGGSLRLSCAASGFTFSTYWMTWVRQAPGRGLEWVANIKQDGSAKYYVDSVKGRFTLSRDDAKNSLYLQMNSLRAEDTAVYYCARGSNWFDYWGQGTLVTVSS VL: ETVMTQSPATLSVSPGERATLSCRANQNVYSNLAWYQQKPGQAPRLLIYDASTRATGFPARFSGSGSGTEFTLTISSLQSEDFAVYYCQQYNNWPLTFGGGTKVEIK"
numeric_result = 3130

[[record]]
binder = "fully human TIM-3 antibody 57F4E5 (antibody, human IgG4, V domains shown, also called antibody number 7) VH: EVQLVESGGGLVQPGGSLRLSCAASGFTFSSYWMSWVRQAPGKGLEWVANIKQDGSEKYYVDSVKGRFTISRDSAKNSLYLQMNSLRAEDTAMYFCARDSNFFDYWGQGTLVTVSS VL: ETVMTQSPATLSVSPGERATLSCRASQSVSSNLAWYQRKPGQAPRLLIYFSSTRATGIPARFSGSGSGTEFTLTISSLQSEDFAVYYCQQYNNWPLTFGGGTKVEIK"
numeric_result = 3660


Could you now consider this next binder?
In plain terms, fully human TIM-3 antibody 134H3G6 (antibody, human IgG4, V domains shown, also called antibody number 3) VH: EVQLVESGGGLVQPGGSLRLSCAASGFTFSNSWMTWVRQAPGKGLEWVANIKQAGTEKYYVDSVKGRFTISRDNAKNSLYLQMNSLRAEDTAVYYCNSGSNYFDYWGQGTLVTVSS VL: EIVMTQSPATLSVSPGERATLSCRARQNFYSNLAWYQQKPGQAPRLLIYGASTRATGIPARFSGSGSGTEFTLTISSLQSEDFAVYYCQQYNNWPLTFGGGTKVEIK has a documented IFN-γ production, lymphocyte activation assay (donor Y), antibody 10 µg/ml, N = 2 of 3910
